Target: shikimate dehydrogenase (SaSDH) (Staphylococcus aureus, UniProt Q6GGA5)
Construct: gene aroE
Experiment: biochemical
Set-up: SaSDH enzyme activity inhibition screening at 500 uM, 10% DMSO
Protocol: The inhibition percentage was determined by measuring enzyme activity under the conditions previously described by adding each compound from an in-house natural product derivative chemical library (40 compounds) to the reaction mixture at quantities of 500 μM; these compounds had been previously dissolved in Dimethyl Sulfoxide (DMSO), keeping 10% DMSO as final concentration. […]
endpoint.name: inhibition at 500 µM (%)
State just the number; it will be interpreted in %.

Look over these answered cases.
## Task Which inhibition at 500 µM reading was recorded for the compound "COc1cccc(C(=O)O)c1" ?
## Result 2

## Task Which inhibition at 500 µM reading was recorded for the compound "Cc1ncc(CO)c(CO)c1O" ?
## Result 28

## Task Which inhibition at 500 µM reading was recorded for the compound "N#Cc1cnc(N)s1" ?
## Result 17

## Task Which inhibition at 500 µM reading was recorded for the compound "FC(F)(F)c1ccc(Br)cn1" ?
## Result 9

## Task Which inhibition at 500 µM reading was recorded for the compound "O=C(O)c1cccnc1" ?
## Result 20

# next compound below
## Task Which inhibition at 500 µM reading was recorded for the compound "Fc1ccc(Cl)nc1" ?
## Result 18

====

target: shikimate dehydrogenase (SaSDH) (Staphylococcus aureus); construct: gene aroE; test: recombinant enzyme activity, NADPH formation at […] nm, dose-response; progress-curve kinetics; assay type: biochemical; conditions: read-out: IC50
endpoint.name: IC50
Give me the value, and tack the unit on after it.

## Task Which IC50 reading was recorded for the molecule "C[C@@H]1O[C@@H](OC[C@H]2O[C@@H](Oc3c(-c4ccc(O)c(O)c4)oc4cc(O)cc(O)c4c3=O)[C@H](O)[C@@H](O)[C@@H]2O)[C@H](O)[C@H](O)[C@H]1O" ?
## Result 165 µM

====

Collected inhibition at 500 µM values appear next to each entry.
Target: shikimate dehydrogenase (SaSDH) (Staphylococcus aureus, UniProt Q6GGA5)
Construct: gene aroE
Sequence (Q6GGA5 1-268): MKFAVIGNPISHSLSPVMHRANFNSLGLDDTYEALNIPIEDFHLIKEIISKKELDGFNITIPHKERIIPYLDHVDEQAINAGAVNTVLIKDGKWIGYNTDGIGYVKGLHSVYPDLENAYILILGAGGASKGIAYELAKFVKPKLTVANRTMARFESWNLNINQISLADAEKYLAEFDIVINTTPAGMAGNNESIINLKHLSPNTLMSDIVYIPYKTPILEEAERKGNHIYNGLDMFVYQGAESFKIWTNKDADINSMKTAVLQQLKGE
Test: biochemical
Design: SaSDH enzyme activity inhibition screening at 500 uM, 10% DMSO
State just the number; it will be interpreted in %.

Look over these answered cases.
## Task Which inhibition at 500 µM reading was recorded for the compound O=C1O[C@H]([C@@H](O)CO)C(O)=C1O [L-Ascorbic acid] ?
## Result 4.5

## Task Which inhibition at 500 µM reading was recorded for the compound NC(=O)c1cccnc1 [Nicotinamide] ?
## Result 5

## Task Which inhibition at 500 µM reading was recorded for the compound COc1ccc(-c2coc3cc(O)ccc3c2=O)cc1 [Formononetin] ?
## Result 13

## Task Which inhibition at 500 µM reading was recorded for the compound "Nc1nc(-c2ccc3c(c2)CCCC3)cs1" ?
## Result 8

New cases:
## Task Which inhibition at 500 µM reading was recorded for the compound COC(=O)c1nc[nH]c1C(=O)OC [Dimethyl imidazole-4,5-dicarboxylate] ?
## Result 18

====

Collected pIC50 values appear next to each entry.
target: shikimate dehydrogenase (SaSDH) (Staphylococcus aureus, UniProt Q6GGA5); construct: gene aroE; test: recombinant enzyme activity, NADPH formation at […] nm, dose-response; progress-curve kinetics; type: biochemical
// field semantics: pIC50 = negative decimal log of concentration (mol/L)

## Task Which pIC50 reading was recorded for the molecule O=C(CCc1ccc(O)cc1)c1c(O)cc(O)cc1O[C@@H]1O[C@H](CO)[C@@H](O)[C@H](O)[C@H]1O [Phloridzin] ?
## Result 3.85

# next molecule below
## Task Which pIC50 reading was recorded for the molecule O=C(O)/C=C/c1ccc(O)c(O)c1 [Caffeic acid] ?
## Result 3.62

====

Collected inhibition at 500 µM values appear next to each entry.
Biological target: shikimate dehydrogenase (SaSDH) (Staphylococcus aureus)
Construct: gene aroE
Sequence (Q6GGA5 1-268): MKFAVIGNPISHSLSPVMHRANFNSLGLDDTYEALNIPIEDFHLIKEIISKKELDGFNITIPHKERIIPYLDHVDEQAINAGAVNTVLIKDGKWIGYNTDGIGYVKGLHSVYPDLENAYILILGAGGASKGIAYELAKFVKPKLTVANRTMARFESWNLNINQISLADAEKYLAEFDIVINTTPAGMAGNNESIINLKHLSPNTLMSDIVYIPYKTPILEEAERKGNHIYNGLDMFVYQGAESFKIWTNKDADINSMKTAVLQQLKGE
Experiment: biochemical
Set-up: SaSDH enzyme activity inhibition screening at 500 uM, 10% DMSO

## Task Which inhibition at 500 µM reading was recorded for the compound Cn1ccnc1S(=O)(=O)Cl [1-Methylimidazole-2-sulfonyl chloride] ?
## Result 13%

## Task Which inhibition at 500 µM reading was recorded for the compound CC(C)=CCC1=C(O)C(=O)c2ccccc2C1=O [Lapachol] ?
## Result 6%

## Task Which inhibition at 500 µM reading was recorded for the compound Brc1nc2ccccc2[nH]1 [2-Bromo-1H-benzimidazole] ?
## Result 10%

# next compound below
## Task Which inhibition at 500 µM reading was recorded for the compound O=C(Cl)c1nc2ccccc2s1 [Benzothiazole-2-carbonyl chloride] ?
## Result 14%

====

target: shikimate dehydrogenase (SaSDH) (Staphylococcus aureus, UniProt Q6GGA5); construct: gene aroE; assay: biochemical; design: SaSDH enzyme activity inhibition screening at 500 uM, 10% DMSO
Where a name gives a salt, the structure may show the parent alone.
Collected inhibition at 500 µM values appear next to each entry.
Give me the value, and tack the unit on after it.

Look over these answered cases.
## Task Item: C1SCC2OC12 (centres unmarked) [3,4-Epoxy-tetrahydrothiophene] Test system: shikimate dehydrogenase (SaSDH) (Staphylococcus aureus, UniProt Q6GGA5) Read-out: inhibition at 500 µM Value: ?
## Result 9%

## Task Item: "CC1=CC(=O)c2ccccc2C1=O" Test system: shikimate dehydrogenase (SaSDH) (Staphylococcus aureus, UniProt Q6GGA5) Read-out: inhibition at 500 µM Value: ?
## Result 17%

## Task Item: O=Cc1c[nH]c2c1ccc1ccccc12 [1H-Benzo[g]indole-3-carboxaldehyde] Test system: shikimate dehydrogenase (SaSDH) (Staphylococcus aureus, UniProt Q6GGA5) Read-out: inhibition at 500 µM Value: ?
## Result 19%

## Task Item: COC(=O)c1ccc(OC)cc1O [Methyl 4-methoxysalicylate] Test system: shikimate dehydrogenase (SaSDH) (Staphylococcus aureus, UniProt Q6GGA5) Read-out: inhibition at 500 µM Value: ?
## Result 10%

New cases:
## Task Item: Cc1ncc(CO)c(C)c1O [4-Deoxypyridoxine hydrochloride] Test system: shikimate dehydrogenase (SaSDH) (Staphylococcus aureus, UniProt Q6GGA5) Read-out: inhibition at 500 µM Value: ?
## Result 12%
